The entries below come with measured CC50 values attached.
# TEST_SUMMARY: Cytotoxicity against MT4 cells by MTT assay
# Assay type: cell-based
# EXPERIMENTAL_SETUP: human, read-out: LC50 (the source's name)
Numbers only; they are read as µM.

molecule="CC(=O)NC(CS(=O)(=O)c1cccc2ccccc12)C(=O)N[C@@H](Cc1ccccc1)[C@H](O)C(=O)N1CSC(C)(C)[C@H]1C(=O)NCc1ccccc1C (stereo partly drawn)" parameter=CC50 unit_spec=µM reported_value=16

Param item = "Cc1c(O)cccc1C(=O)N[C@@H](CSc1ccccc1)[C@H](O)CN1C[C@H]2CCCC[C@H]2C[C@H]1C(=O)NC(C)(C)C" ; retrieve measured CC50. 11

Source listed as ChEMBL document CHEMBL1145381.
